For each record, write down the corresponding IP One Max.
# TARGET_OF_ASSAY: human angiotensin 2 type 1 receptor (human) (UniProt P30556)
# Sequence (P30556 whole entry): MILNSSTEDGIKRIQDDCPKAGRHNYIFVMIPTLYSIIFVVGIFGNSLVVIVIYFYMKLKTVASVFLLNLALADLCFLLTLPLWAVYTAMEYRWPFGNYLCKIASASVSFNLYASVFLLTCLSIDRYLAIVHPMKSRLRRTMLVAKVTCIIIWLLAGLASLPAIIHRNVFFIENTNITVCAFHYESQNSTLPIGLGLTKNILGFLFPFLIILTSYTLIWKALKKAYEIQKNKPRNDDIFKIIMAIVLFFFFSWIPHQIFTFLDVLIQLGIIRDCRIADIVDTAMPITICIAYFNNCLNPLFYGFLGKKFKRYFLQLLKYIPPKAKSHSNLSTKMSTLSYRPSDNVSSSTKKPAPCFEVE
# EXPERIMENT_SUMMARY: cell-based or functional assay
Where no end group is shown, it is not given here.
Enter your answer as a number in %; do not include the unit.

# input Look up IP One Max for this binder: RVYVHPI (N-terminal Sar; C-terminal amide) [SEQ ID NO: 12 (Sar-Arg-Val-Tyr-Val-His-Pro-Ile-NH2)]
# output 20.7

# input Look up IP One Max for this binder: DRVYYHP-NH2 [SEQ ID NO: 57 (Asp-Arg-Val-Tyr-Tyr-His-Pro-NH2)]
# output 10

# input Look up IP One Max for this binder: RVYIHP (N-terminal Sar; C-terminal norvaline) [SEQ ID NO: 35 (Sar-Arg-Val-Tyr-Ile-His-Pro-NVA-OH)]
# output 7.1

# input Look up IP One Max for this binder: RVYYHPI (N-terminal Sar; C-terminal amide) [SEQ ID NO: 15 (Sar-Arg-Val-Tyr-Tyr-His-Pro-Ile-NH2)]
# output 19.3

# input Look up IP One Max for this binder: RVYYHPI (N-terminal Sar; C-terminal acid) [SEQ ID NO: 14 (Sar-Arg-Val-Tyr-Tyr-His-Pro-Ile-OH)]
# output 13.5

Each recorded value in this set is attributed to patent US20240025949A1.
